- assay_explanation: Identification of proteins required for the processing of the EWS-FLI1 nascent transcript;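 note: robust z of luciferase light less the median z of siRNAs with the same seed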
- conditions_used: TC32 Ewing sarcoma NR0B1-luc vs CMV-luc, 48 h; screened at 20 nM (by protocol)
Over roughly 59,000 sequences, the read-out has its median near -0.00055; the lowest 2% begin near -2. This is one part of a sample in which the lowest values are shown more often than they occur.
Measured seed-corrected z-score of individual entries

Previously resolved entries follow.
residues: AGUGAUGACAUUGAUAUCG against SYDE1
result: 1.21
--
residues: UAUCUUCAGAUCGCUGUAC against ANKFY1
result: 0.715
--
residues: UAUAGCUGAAUGGUCAUUG against KRTAP3-3
result: -3.04

## Task What does the data say about its seed-corrected z-score? Entry: UUGGUCAUAGAGGUCGUCC against LSR
## Result -1.71

## Task What does the data say about its seed-corrected z-score? Entry: UUCUUUAGACUGUCCAGCG against KLHL6
## Result -2.04

## Task What does the data say about its seed-corrected z-score? Entry: UGAAGUUACAUUCAGUUCU against ZFAND3
## Result 0.106

## Task What does the data say about its seed-corrected z-score? Entry: UGCUCCAUCACAAAGGCGG against FN3K
## Result 1.15

## Task What does the data say about its seed-corrected z-score? Entry: UUCUGAUCCUGGAUGUUGC against R3HDM1
## Result 0.205

## Task What does the data say about its seed-corrected z-score? Entry: UCAUUGUUGAUUUGGUCUC against 3-Sep
## Result 1.43

## Task What does the data say about its seed-corrected z-score? Entry: AAUCUUGUUAUGCUCAUGG against ZBTB47
## Result -0.317

====

Measured seed-corrected z-score of individual entries
- assay_explanation: Identification of proteins required for the processing of the EWS-FLI1 nascent transcript;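 note: robust z of luciferase light less the median z of siRNAs with the same seed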
- conditions_used: TC32 Ewing sarcoma NR0B1-luc vs CMV-luc, 48 h; screened at 20 nM (by protocol)
- Description: Ewing sarcoma (ES) cells depend on the EWS-FLI1 fusion transcription factor for cell survival. […] Luciferase activity was assessed 48 hours post siRNA-transfection. Twenty microl of serum-free media containing Lipofectamine RNAiMax (0.05 microl) was added to wells containing siRNA (0.8 pmol). […] Luciferase expression was measured using OneGlo (Promega, Madison, WI). […]
The full ranking holds about 59,000 sequences; the median of the read-out is about -0.00055, and the lowest 2% start at about -2. The sample as a whole holds a higher share of the lowest values than the screen did.
Number only, no unit.

Previously resolved entries follow.
residues: UUAUUUAUGUAGUUCAGGA against IZUMO4
numeric_result: -1.87

residues: UAGGUGAACAUCAUGACGC against ITGB5
numeric_result: -0.131

residues: UUGACAAAAGUGAGGAUCG against LGALS14
numeric_result: 0.5

residues: AUAGGCUUUAUCAAGAUCG against MPP5
numeric_result: 0.288

residues: UUUGGUGACUGGACCGUUC against TRIM24
numeric_result: -0.553

residues: UGUAGAGAUGCGGUGGUCC against BIRC5
numeric_result: -2.18

residues: UAGAUUCUCGUGCACAGCC against KIFC3
numeric_result: 0.0224

residues: UCAUUUUACCUCUUCCAUC against GADL1
numeric_result: 0.676

residues: AAACUUUCUCCUUAAGGCC against PRR11
numeric_result: -0.21

residues: AUACCUGCUAAUGUCAUCC against ERCC6
numeric_result: -3.8

## Task What does the data say about its seed-corrected z-score? Entry: UGCAGAUGCGGAAAGCUGC against LOC388692
## Result 0.336

## Task What does the data say about its seed-corrected z-score? Entry: UCAGCAUCUUCCAUGAUAG against B3GNT4
## Result -0.437

## Task What does the data say about its seed-corrected z-score? Entry: ACAGCUAUCACUGCAUGCC against OR14J1
## Result -3.81

## Task What does the data say about its seed-corrected z-score? Entry: UAUGUGGUUAGUCCGUGUG against GTF3C1
## Result 0.362

## Task What does the data say about its seed-corrected z-score? Entry: UAGGUAGAAGUGAUUGUUC against ZFAND4
## Result 0.956

## Task What does the data say about its seed-corrected z-score? Entry: UUGGGUGUCAGCAGUACUG against PRRC2A
## Result -2.05

## Task What does the data say about its seed-corrected z-score? Entry: UUAUGCUAAAAUCUACUCC against TNKS2
## Result -1.04

## Task What does the data say about its seed-corrected z-score? Entry: UGUAAUUAUACCAAUGUAG against EEF1B2P5
## Result -2.11

## Task What does the data say about its seed-corrected z-score? Entry: UUGGUAAACAUCUCCAGGC against TRIM63
## Result 1.24

## Task What does the data say about its seed-corrected z-score? Entry: UAAGAUACUCGGGUUUCAC against ZADH2
## Result -0.425

====

- assay_explanation: Identification of proteins required for the processing of the EWS-FLI1 nascent transcript;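 note: robust z of luciferase light less the median z of siRNAs with the same seed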
- conditions_used: TC32 Ewing sarcoma NR0B1-luc vs CMV-luc, 48 h; screened at 20 nM (by protocol)
Whole data set: some 59,000 sequences, median the read-out near -0.00055, cut for the lowest 2% near -2. The entries come from a sample that favours the lowest values as a whole.
Strictly below -1 in seed-corrected z-score: label 1. Otherwise: label 0.

residues: UUUGGAUGUACGUGUAUAC against DYRK4
assigned_class: label 0
--
residues: UGAUUAGUCACCAAAGUCC against ATF7IP
assigned_class: label 1
--
residues: AAUAGGUGUAAGUCCGUGC against NR5A2
assigned_class: label 1
--
residues: AAACGUUUGGAGCCUCUUG against NOXO1
assigned_class: label 1
--
residues: UCUGUGAGGAAUGCUGUCC against RFT1
assigned_class: label 1
--
residues: UCAGAGUUGGUGACUAUGC against MUC21
assigned_class: label 0

Then this sequence:
## Task A record lists UUAAUGGGAAGUUCUGGUG against ALG8 . Is its seed-corrected z-score below -1?
## Result label 0

====

- assay_explanation: Identification of proteins required for the processing of the EWS-FLI1 nascent transcript;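 note: robust z of luciferase light less the median z of siRNAs with the same seed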
- conditions_used: TC32 Ewing sarcoma NR0B1-luc vs CMV-luc, 48 h; screened at 20 nM (by protocol)
The full ranking holds about 59,000 sequences; the median of the read-out is about -0.00055, and the lowest 2% start at about -2. The sample as a whole holds a higher share of the lowest values than the screen did.
Strictly below -0.4 in seed-corrected z-score: True. Otherwise: False.

residues: UUAGGGAUGACGUGGGUGC against GRIN1
assigned_class: True
--
residues: AUGCUUAUAAUGACCACCA against SLC51B
assigned_class: True
--
residues: UGAGUCAUAAGAAGGGUCU against FLI1
assigned_class: True
--
residues: UCUUGCUCCAAACCUGCUC against KLHL34
assigned_class: False
--
residues: UCUAUUUUGACCGAGUAUG against CKAP4
assigned_class: False

## Task A record lists UCCUUCUUGAGCAGGUUCU against SOX14 . Is its seed-corrected z-score below -0.4?
## Result False

## Task A record lists UGUAGGUGUAGGCUGUUCG against RFX2 . Is its seed-corrected z-score below -0.4?
## Result True

====

- assay_explanation: Identification of proteins required for the processing of the EWS-FLI1 nascent transcript;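 note: robust z of luciferase light less the median z of siRNAs with the same seed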
- conditions_used: TC32 Ewing sarcoma NR0B1-luc vs CMV-luc (EWS-FLI1 target promoter against control promoter), 48 h; screened at 20 nM (by protocol)
Whole data set: some 59,000 sequences, median the read-out near -0.00055, cut for the lowest 2% near -2. Shown is part of a subset that was picked to be rich in the lowest values.
Measured seed-corrected z-score of individual entries
Number only, no unit.

Previously resolved entries follow.
residues: UUUGGGUCGUUGUACAUCU against AGBL4
seed-corrected z-score: -2.02
--
residues: AUAGGGAGCACUUGGGAGC against C20orf24
seed-corrected z-score: -1.49
--
residues: AGUCAUUUAAACUUGAUCC against TMSB4X
seed-corrected z-score: 0.898
--
residues: UUCUGACUGAGAGCUAUGG against BNIP3L
seed-corrected z-score: -0.338
--
residues: UAUUGUAAGAGUACACGUC against IGSF5
seed-corrected z-score: -0.00495

## Task What does the data say about its seed-corrected z-score? Entry: UAUUUGUCCAGGUAUGGUG against ERRFI1
## Result -0.215

## Task What does the data say about its seed-corrected z-score? Entry: UAUGGUUAGAAGAUAUCCC against IDS
## Result 1.1

## Task What does the data say about its seed-corrected z-score? Entry: ACAGUUAGUAUUGUACUUG against ZNF280C
## Result 0.315

## Task What does the data say about its seed-corrected z-score? Entry: UAAACUGCACUUUCCACGG against C12orf49
## Result -2.69

## Task What does the data say about its seed-corrected z-score? Entry: UUUGGGACAAGGCACAAGC against PRKCDBP
## Result 0.468

## Task What does the data say about its seed-corrected z-score? Entry: UUCGUAUUCAACUGACUGC against TCP11L1
## Result 1.06

## Task What does the data say about its seed-corrected z-score? Entry: AGAUCUACUAGUUCUUGUG against LRCH1
## Result 0.758
